pIC50 for assorted molecules
test target: Extracellular calcium-sensing receptor (Homo sapiens)
Sequence (P41180 whole entry): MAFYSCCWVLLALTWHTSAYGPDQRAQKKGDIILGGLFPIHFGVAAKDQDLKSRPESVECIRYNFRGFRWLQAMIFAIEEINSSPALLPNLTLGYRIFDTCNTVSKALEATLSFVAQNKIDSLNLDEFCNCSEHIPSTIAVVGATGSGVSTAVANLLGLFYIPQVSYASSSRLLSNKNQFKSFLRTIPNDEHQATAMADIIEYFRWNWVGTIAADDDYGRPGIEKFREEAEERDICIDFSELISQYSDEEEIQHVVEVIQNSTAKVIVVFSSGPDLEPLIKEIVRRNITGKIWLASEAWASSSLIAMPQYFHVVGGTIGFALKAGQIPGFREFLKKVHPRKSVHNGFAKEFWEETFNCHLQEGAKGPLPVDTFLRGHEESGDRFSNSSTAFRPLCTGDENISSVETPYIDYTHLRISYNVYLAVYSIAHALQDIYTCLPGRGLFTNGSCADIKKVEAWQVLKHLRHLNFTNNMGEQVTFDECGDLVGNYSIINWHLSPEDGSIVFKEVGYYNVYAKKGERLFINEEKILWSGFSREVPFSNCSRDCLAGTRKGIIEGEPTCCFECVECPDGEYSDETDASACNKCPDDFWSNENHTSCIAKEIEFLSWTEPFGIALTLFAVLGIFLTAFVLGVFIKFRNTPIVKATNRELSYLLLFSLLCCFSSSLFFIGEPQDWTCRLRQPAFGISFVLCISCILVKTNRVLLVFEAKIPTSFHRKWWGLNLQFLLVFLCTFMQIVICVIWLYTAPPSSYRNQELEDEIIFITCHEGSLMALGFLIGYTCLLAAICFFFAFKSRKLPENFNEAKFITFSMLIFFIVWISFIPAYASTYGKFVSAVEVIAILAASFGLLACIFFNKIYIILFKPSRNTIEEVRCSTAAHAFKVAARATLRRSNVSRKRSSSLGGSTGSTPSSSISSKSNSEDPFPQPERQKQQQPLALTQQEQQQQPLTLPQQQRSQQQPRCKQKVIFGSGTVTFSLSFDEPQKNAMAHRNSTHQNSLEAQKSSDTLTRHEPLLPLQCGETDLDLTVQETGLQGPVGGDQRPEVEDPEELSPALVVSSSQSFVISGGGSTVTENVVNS
method: Antagonist activity at calcium-sensing receptor expressed in HEK293 cells by FLIPR assay
Field pIC50 (float): negative decimal logarithm of the concentration in molar.

| molecule | test target | quantity measured | experimental value |
| --- | --- | --- | --- |
| COc1ccc(CNc2ncc(C(=O)NCCOc3ccccc3)c(-c3cc(OC)c(OC)c(OC)c3)n2)cc1 | Extracellular calcium-sensing receptor (Homo sapiens) | pIC50 | 5.51 |
| COc1ccccc1CCNc1ncc(C(=O)NCCOc2ccccc2)c(-c2cc(OC)c(OC)c(OC)c2)n1 | Extracellular calcium-sensing receptor (Homo sapiens) | pIC50 | 6.47 |
| COc1cc(-c2nc(NCc3ccc4c(c3)OCO4)ccc2C(=O)NCCOc2ccccc2)cc(OC)c1OC | Extracellular calcium-sensing receptor (Homo sapiens) | pIC50 | 6.89 |
| COc1cc(-c2nc(N(C)Cc3ccccc3)ncc2C(=O)NCCOc2ccccc2)cc(OC)c1OC | Extracellular calcium-sensing receptor (Homo sapiens) | pIC50 | 6.33 |
| CCN(Cc1ccccc1)c1ncc(C(=O)NCCOc2ccccc2)c(-c2cc(OC)c(OC)c(OC)c2)n1 | Extracellular calcium-sensing receptor (Homo sapiens) | pIC50 | 6.70 |

Any idea what its pIC50 is? The molecule is COc1cc(-c2nc(NCc3ccc4c(c3)OCO4)ncc2C(=O)NCCOc2ccccc2)cc(OC)c1OC
6.82

Any idea what its pIC50 is? The molecule is COc1cc(-c2nc(N(C)CCc3ccccc3)ncc2C(=O)NCCOc2ccccc2)cc(OC)c1OC
5.82

Any idea what its pIC50 is? The molecule is CCN(Cc1ccccc1)c1ncc(C(=O)NCCCc2ccccc2)c(-c2cc(OC)c(OC)c(OC)c2)n1
5.68

Any idea what its pIC50 is? The molecule is COc1ccc(-c2nc(NCc3ccc4c(c3)OCO4)ncc2C(=O)NCCOc2ccccc2)c(OC)n1
6.66

Any idea what its pIC50 is? The molecule is CCN(Cc1ccccc1)c1ccc(C(=O)NCCOc2ccccc2)c(-c2ccc(OC)nc2OC)n1
5.98

Any idea what its pIC50 is? The molecule is COc1ccc(-c2nc(NCc3ccc4c(c3)OCO4)ncc2C(=O)NC(C)Cc2ccc(Cl)cc2)c(OC)n1 (stereo not drawn)
6.82

Any idea what its pIC50 is? The molecule is COc1ccc(-c2nc(NCc3ccc4c(c3)OCO4)ncc2C(=O)N2CCc3ccccc3C2)c(OC)n1
6.44

Any idea what its pIC50 is? The molecule is COc1cc(-c2nc(N[C@H](CO)Cc3ccccc3)ncc2C(=O)NCCOc2ccccc2)cc(OC)c1OC
6.82

Any idea what its pIC50 is? The molecule is COc1ccc(-c2nc(N[C@H](CO)Cc3ccccc3)ccc2C(=O)NCCOc2ccccc2)c(OC)n1
6.85

Any idea what its pIC50 is? The molecule is COc1cccc(CNc2ncc(C(=O)NCCOc3ccccc3)c(-c3cc(OC)c(OC)c(OC)c3)n2)c1
6.47
